# Assay procedure: In vivo pharmacokinetic interaction study in rats (plasma)
# Parameters: species or system rat
# Condition notes: male, Sprague-Dawley, rat, plasma, po, 2 mg/kg, oral amifampridine 2 mg/kg, control group
Readout name: CL/F (mL/min/kg)
The answer is to be given in mL/min/kg; state only the numeric part.

Would you kindly share the measured CL/F for Nc1ccncc1N ?
225

====

# Assay procedure: Tissue distribution of amifampridine and 3-N-acetylamifampridine in rats
# Type: in vivo, rat
# Condition notes: male, Sprague-Dawley, rat, liver; 60 min after oral amifampridine 2 mg/kg, control; read-out: Tissue partition coefficient (Kp), Liver
The compounds listed here are annotated with their Kp at 1 h.
I'd appreciate a reply containing only the number, no unit.

[
  {
    "Smiles input": "CC(=O)Nc1cnccc1N",
    "Reported": 6.5
  }
]

Okay, next one:
Would you kindly share the measured Kp at 1 h for Nc1ccncc1N ?
3.8

These measurements were taken from paper PMC10221159.
